TARGET_OR_SYSTEM: Carbonic anhydrase 14 (Homo sapiens, UniProt Q9ULX7)
Sequence (Q9ULX7 whole entry): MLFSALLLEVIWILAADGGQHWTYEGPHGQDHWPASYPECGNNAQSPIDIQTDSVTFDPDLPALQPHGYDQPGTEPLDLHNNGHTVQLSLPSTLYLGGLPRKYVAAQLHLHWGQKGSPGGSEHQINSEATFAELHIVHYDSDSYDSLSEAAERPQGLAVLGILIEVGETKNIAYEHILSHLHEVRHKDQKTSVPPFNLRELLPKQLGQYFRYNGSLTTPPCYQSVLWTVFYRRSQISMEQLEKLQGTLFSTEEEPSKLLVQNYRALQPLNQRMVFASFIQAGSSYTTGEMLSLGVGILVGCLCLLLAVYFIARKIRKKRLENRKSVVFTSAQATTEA
READOUT_LABEL: pKi
Remember, pKi is on a log scale: it is -log10 of the molar concentration.

Data request: Recorded pKi of `CC1(C)OB(c2ccc(NS(N)(=O)=O)cc2)OC1(C)C` , please.
Data returned: 8.15

---

TARGET_OR_SYSTEM: Carbonic anhydrase 4 (Homo sapiens)
Sequence (P22748 whole entry): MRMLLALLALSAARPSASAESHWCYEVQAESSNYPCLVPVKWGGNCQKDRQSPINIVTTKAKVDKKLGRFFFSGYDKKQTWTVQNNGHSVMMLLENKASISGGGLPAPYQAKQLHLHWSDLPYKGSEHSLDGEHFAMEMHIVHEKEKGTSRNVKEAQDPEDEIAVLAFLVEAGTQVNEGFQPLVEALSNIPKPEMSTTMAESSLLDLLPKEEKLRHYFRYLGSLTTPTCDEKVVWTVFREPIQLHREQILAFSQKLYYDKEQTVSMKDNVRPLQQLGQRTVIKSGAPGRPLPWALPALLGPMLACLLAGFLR
READOUT_LABEL: Ki (µM)
Field format: number, assumed µM, no unit text.

Data request: Could you tell me which Ki is on file for `CC1(C)OB(c2ccc(NS(N)(=O)=O)cc2)OC1(C)C` ?
Data returned: 8.62

---

TARGET_OR_SYSTEM: Carbonic anhydrase 7 (Homo sapiens, UniProt P43166)
Sequence (P43166 whole entry): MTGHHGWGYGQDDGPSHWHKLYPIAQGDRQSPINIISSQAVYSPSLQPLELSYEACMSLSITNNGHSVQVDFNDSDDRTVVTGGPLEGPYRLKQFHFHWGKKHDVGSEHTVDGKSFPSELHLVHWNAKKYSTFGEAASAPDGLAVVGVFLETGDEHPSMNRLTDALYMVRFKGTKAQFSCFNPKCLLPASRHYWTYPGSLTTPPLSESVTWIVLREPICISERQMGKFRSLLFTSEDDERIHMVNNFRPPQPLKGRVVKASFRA
READOUT_LABEL: pKi
Just so you know, pKi here is -log10 of the concentration in molar units; reply with that number alone.

Data request: I'm curious: which pKi was measured for `CC1(C)OB(c2ccc(NS(N)(=O)=O)cc2)OC1(C)C` tested on Carbonic anhydrase 7 (Homo sapiens, UniProt P43166)?
Data returned: 7.08

---

TARGET_OR_SYSTEM: UniProtKB O43570
Sequence (O43570 whole entry): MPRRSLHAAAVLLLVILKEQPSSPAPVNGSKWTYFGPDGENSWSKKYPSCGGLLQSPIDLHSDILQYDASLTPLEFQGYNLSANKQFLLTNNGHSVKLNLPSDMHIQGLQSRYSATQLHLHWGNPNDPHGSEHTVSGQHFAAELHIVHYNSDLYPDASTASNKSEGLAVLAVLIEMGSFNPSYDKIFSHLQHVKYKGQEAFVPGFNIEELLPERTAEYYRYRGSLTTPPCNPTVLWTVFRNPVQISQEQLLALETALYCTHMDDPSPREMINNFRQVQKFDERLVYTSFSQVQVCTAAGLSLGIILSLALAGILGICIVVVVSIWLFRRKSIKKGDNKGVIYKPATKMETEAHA
READOUT_LABEL: Ki (nM)
Give the value, in units of nM, as a plain number.

Data request: Return reported Ki; argument: `CC1(C)OB(c2ccc(NS(N)(=O)=O)cc2)OC1(C)C`
Data returned: 8.9
